- study-system: T1, human C5aR (CD88) (human, UniProt P21730 1-350)
- T1 sequence (looked up): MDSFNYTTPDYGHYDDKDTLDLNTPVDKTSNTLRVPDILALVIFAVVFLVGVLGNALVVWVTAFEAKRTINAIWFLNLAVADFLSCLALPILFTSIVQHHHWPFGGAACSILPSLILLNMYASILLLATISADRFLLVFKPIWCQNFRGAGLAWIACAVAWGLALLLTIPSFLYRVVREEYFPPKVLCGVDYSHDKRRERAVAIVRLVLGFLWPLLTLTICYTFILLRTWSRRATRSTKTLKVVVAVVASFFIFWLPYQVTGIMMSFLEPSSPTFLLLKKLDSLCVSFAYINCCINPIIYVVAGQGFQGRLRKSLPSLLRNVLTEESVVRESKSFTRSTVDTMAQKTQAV
- assay-notes: cell-based or functional assay
Positions of bridges follow the written chain, without caps; N, C: chain ends. Non-standard residues stand in square brackets, D forms with d. No end group written: not given here. dCha = N[C@H](CC1CCCCC1)C(=O)O; AllylGly = C=CC[C@H](N)C(=O)O; Nle = CCCC[C@H](N)C(=O)O; Orn = NCCC[C@H](N)C(=O)O
assay-endpoint: EC50, agonistic activity, enzyme release assay

Example results:
binder	meas-value
Ac-KF[Orn]P[dCha]W[Nle] (lactam 3-C; SMILES CCCC[C@@H]1NC(=O)[C@H](Cc2c[nH]c3ccccc23)NC(=O)[C@@H](CC2CCCCC2)NC(=O)[C@@H]2CCCN2C(=O)[C@@H](NC(=O)[C@H](Cc2ccccc2)NC(=O)[C@H](CCCCN)NC(C)=O)CCCNC1=O) [Ac-Lys-Phe-[Orn-Pro-cha-Trp-Nle]]	> 1430 nM
Ac-F[Orn]P[dCha]W[AllylGly] (lactam (positions not given here); not fully specified (bridges); printed as Ac-Phe-[Orn-Pro-cha-Trp-Eaf]) [Ac-Phe-[Orn-Pro-cha-Trp-Eaf]]	> 1430 nM

Now turn to the next binder.
Endpoint output: EC50, agonistic activity, enzyme release assay of {HOCH2(CHOH)4‑C═N‑O‑CH2‑CO}-F[Orn]P[dCha]W[Nle] (lactam 2-C) [HOCH2(CHOH)4-C═N-O-CH2-CO-Phe-[Orn-Pro-cha-Trp-Nle]] . Value?
> 1430 nM
